Hello, the source for this data is patent US20240217966A1, in case you need it.

Recorded EC50 by entry
- test_target: Human GLP-1 receptor (Homo sapiens, UniProt P43220)
- Construct: expressed in transfected cells
- Sequence (P43220 24-463): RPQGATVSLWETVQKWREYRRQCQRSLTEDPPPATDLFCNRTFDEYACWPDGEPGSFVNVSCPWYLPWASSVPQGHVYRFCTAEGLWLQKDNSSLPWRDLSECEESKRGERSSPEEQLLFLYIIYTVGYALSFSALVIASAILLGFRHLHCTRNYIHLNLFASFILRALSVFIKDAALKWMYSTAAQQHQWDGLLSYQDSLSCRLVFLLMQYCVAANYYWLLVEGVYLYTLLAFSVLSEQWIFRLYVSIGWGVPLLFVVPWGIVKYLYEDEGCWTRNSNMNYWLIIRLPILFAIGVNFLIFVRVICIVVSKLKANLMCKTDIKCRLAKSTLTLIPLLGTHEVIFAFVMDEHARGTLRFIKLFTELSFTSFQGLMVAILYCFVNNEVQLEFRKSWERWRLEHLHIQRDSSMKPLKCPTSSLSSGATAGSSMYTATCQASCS
- experiment_summary: Measurement of GLP-1 receptor agonist activity (cAMP assay)
- Assay type: cell-based
- condition: hGLP-1R/CHO-K1 cells, cAMP increase, 37° C. 1 hour
Give your result in nM as a bare value.

These recorded examples may help you get a feel for the data.
COc1ccc(COc2cc3c(cc2C(F)(F)F)CCN(Cc2nc4ccc(C(=O)O)c(F)c4n2C[C@@H]2CCO2)[C@H]3C)cc1 | 1.08
N#Cc1ccc(COc2cc3c(cc2C(F)(F)F)CCN(Cc2nc4ccc(C(=O)O)cc4n2C[C@@H]2CCO2)C3)c(F)c1 | 14.6

response.value for `COc1cc(C(=O)O)cc2c1nc(CN1CCc3cc(C(F)(F)F)c(OCc4ccc(Cl)cc4F)cc3[C@@H]1C)n2C[C@@H]1CCO1` (field: EC50) = 0.0651

response.value for `Cc1cc2c(cc1OCc1ccc(C(F)(F)F)cn1)CN(Cc1nc3ccc(C(=O)O)cc3n1C[C@@H]1CCO1)CC2` (field: EC50) = 74.3

response.value for `Cc1cc2c(cc1OCc1ccc(C(F)(F)F)cc1F)CN(Cc1nc3ccc(C(=O)O)cc3n1C[C@@H]1CCO1)CC2` (field: EC50) = 75.8
